Below: a set of entries, each annotated with reported mPTP Rat liver pIC50.
# Test system: mPTP
# experimentNotes: mPTP activity (Ca2+ retention) assay in isolated rat liver mitochondria
# Type: biochemical
# appliedConditions: isolated rat liver mitochondria; average value from multiple experiments (n ≥ 2)
A bare number is all that is needed in reply.

{"compound": "Cc1ncc(F)c(C)c1NC(=O)/C=C/c1ccc2c(Cl)n[nH]c2c1 [Example 112]", "mPTP Rat liver pIC50": 8.2}

Entry under test: Cc1cccc(C)c1NC(=O)/C=C/c1ccc2c(c1)[nH]c(=O)n2C [Example 29] . Its mPTP Rat liver pIC50 was 6.9

---

# assayedSystem: UniProtKB P10635
# Sequence (P10635 whole entry): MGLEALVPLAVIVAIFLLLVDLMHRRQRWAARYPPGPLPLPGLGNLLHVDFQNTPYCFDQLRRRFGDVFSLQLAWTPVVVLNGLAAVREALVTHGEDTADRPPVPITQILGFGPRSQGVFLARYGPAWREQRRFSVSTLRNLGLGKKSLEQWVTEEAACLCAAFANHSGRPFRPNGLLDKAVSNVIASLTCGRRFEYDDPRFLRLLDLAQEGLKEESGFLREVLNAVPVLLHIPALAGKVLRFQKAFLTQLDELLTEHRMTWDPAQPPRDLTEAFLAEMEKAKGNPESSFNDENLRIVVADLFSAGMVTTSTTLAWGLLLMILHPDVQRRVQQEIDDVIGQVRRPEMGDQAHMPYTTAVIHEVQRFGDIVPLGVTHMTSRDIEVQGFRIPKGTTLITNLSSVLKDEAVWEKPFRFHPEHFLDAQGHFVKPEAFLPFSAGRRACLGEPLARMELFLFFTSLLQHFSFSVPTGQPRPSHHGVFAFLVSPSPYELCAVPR
# experimentNotes: Cytochrome P450 CYP2D6 inhibition in human liver microsomes
# Type: in vitro ADME
# appliedConditions: probe dextromethorphan 2 µM (dextrorphan formation); 1 uM test compound, human liver microsomes; average value from two experiments; negative values = no effective inhibition
quantity: inhibition at 20 min, 1 µM (%)
A number alone suffices; assume %.

{"compound": "Cc1ccc(F)cc1NC(=O)/C=C/c1ccc2oc(=O)[nH]c2c1 [Example 17]", "assayedSystem": "UniProtKB P10635", "inhibition at 20 min, 1 µM (%)": 1.91}
{"compound": "Cc1cc(F)c(F)cc1NC(=O)/C=C/c1ccc2oc(=O)[nH]c2c1 [Example 16]", "assayedSystem": "UniProtKB P10635", "inhibition at 20 min, 1 µM (%)": 1.72}

Entry under test: N#Cc1n[nH]c2cc(/C=C/C(=O)NC3CCc4ccccc43)ccc12 (stereo not drawn) [Example 26] . Its inhibition at 20 min, 1 µM was 3.49

Entry under test: Cc1n[nH]c2cc(/C=C/C(=O)Nc3cccc4cnn(C)c34)ccc12 [Example 39] . Its inhibition at 20 min, 1 µM was 3.83

Entry under test: Cc1c(F)cccc1NC(=O)/C=C/c1ccc2c(c1)NC(=O)C2 [Example 10] . Its inhibition at 20 min, 1 µM was 3.66

Entry under test: Cc1ccc(NC(=O)/C=C/c2ccc3c(C)n[nH]c3c2)cc1F [Example 42] . Its inhibition at 20 min, 1 µM was -1.97

Entry under test: O=C(/C=C/c1ccc2c(C3CC3)n[nH]c2c1)NC1CCc2ccccc21 (stereo not drawn) [Example 33] . Its inhibition at 20 min, 1 µM was -0.55

Entry under test: CC(C)c1ccc(Cl)cc1NC(=O)/C=C/c1ccc2oc(=O)[nH]c2c1 [Example 15] . Its inhibition at 20 min, 1 µM was -0.28

Entry under test: CO[C@H]1Cc2ccccc2[C@@H]1NC(=O)/C=C/c1ccc2c(C3CC3)n[nH]c2c1 [Example 70] . Its inhibition at 20 min, 1 µM was 7.5

---

Below: a set of entries, each annotated with reported solubility at 2 h.
# experimentNotes: PBS and FaSSIF solubility
# Assay type: physicochemical
# appliedConditions: fasted state simulated intestinal fluid (FaSSIF), fassif, kinetic from dmso stock; Fasted state simulated intestinal fluid, 2 hr at 25° C.; read-out: Solubility FaSSIF
A number alone suffices; assume µM.

{"compound": "COCc1c(F)cccc1NC(=O)/C=C/c1ccc2c(C)n[nH]c2c1 [Example 50]", "quantityUnit": "µM", "solubility at 2 h": 23.7}
{"compound": "CO[C@H]1Cc2ccccc2[C@@H]1NC(=O)/C=C/c1ccc2c(C3CC3)n[nH]c2c1 [Example 70]", "quantityUnit": "µM", "solubility at 2 h": 18.4}

Next up:
Entry under test: COCc1c(F)cncc1NC(=O)/C=C/c1ccc2c(C)n[nH]c2c1 [Example 114] . Its solubility at 2 h was 19
